- targetDesc: FGFR3 (UniProt P22607)
- Sequence (P22607 whole entry, looked up): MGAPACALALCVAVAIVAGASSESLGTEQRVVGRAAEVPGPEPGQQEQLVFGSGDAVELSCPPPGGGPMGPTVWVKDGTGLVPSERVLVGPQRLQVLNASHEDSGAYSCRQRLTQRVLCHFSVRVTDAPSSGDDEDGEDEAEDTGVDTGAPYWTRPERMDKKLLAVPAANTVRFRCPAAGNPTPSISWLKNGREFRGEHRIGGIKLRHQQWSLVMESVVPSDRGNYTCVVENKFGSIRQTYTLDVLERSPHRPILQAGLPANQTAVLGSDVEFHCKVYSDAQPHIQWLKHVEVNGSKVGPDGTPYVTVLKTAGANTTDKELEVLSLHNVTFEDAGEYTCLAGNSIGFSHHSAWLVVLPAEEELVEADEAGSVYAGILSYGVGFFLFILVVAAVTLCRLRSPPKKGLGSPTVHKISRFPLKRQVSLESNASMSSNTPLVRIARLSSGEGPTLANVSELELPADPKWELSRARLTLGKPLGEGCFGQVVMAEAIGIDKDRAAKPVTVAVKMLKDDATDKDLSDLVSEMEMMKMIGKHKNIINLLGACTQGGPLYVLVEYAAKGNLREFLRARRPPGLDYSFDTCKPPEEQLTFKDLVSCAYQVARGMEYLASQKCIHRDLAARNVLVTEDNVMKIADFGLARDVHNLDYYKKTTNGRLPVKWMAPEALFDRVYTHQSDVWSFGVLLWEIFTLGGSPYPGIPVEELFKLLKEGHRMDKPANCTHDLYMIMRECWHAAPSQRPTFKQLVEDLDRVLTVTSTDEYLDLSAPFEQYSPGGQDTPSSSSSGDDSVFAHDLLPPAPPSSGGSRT
- protocolSummary: phosphorylation enrichment, bacterial display (enrichment ratio); higher = better substrate or ligand; peptides without Tyr show the background
propertyMeasured: phosphorylation enrichment
Please state the value as a number alone, without comment.

| residueSequence | targetDesc | propertyMeasured | number |
| --- | --- | --- | --- |
| IRQDHYESLKE [MTR_Y921] | FGFR3 (UniProt P22607) | phosphorylation enrichment | 0.693 |
| HRGHLYLAIEY [TEK_Y899_Y897H] | FGFR3 (UniProt P22607) | phosphorylation enrichment | 1.23 |
| DLHGIYQKLVI | FGFR3 (UniProt P22607) | phosphorylation enrichment | 1.31 |
| KVGNEYVTKGQ [MYH7_Y410] | FGFR3 (UniProt P22607) | phosphorylation enrichment | 0.422 |
| HGEAFYSEVKP [PAK5_Y182_YF] | FGFR3 (UniProt P22607) | phosphorylation enrichment | 2.49 |

response.value for QRALLYEDALF [UNC13D_Y56_YF] (field: phosphorylation enrichment) = 0.896

// sample IFCIQYNIRAF [MYH4_Y820] , its phosphorylation enrichment was 1.08

sequence LLLLFCVVRYC [MPZ_Y177_Y177C] , phosphorylation enrichment observed: 2.14

Short answer for QWRTKYETDTI [MYH7_Y1375_A1379T] : phosphorylation enrichment was 0.757

Record LKRCQYVTEKV [ALDOA_Y204] , field phosphorylation enrichment: 0.924

---

- Tested on: AncSZ
- protocolSummary: phosphorylation enrichment, bacterial display (enrichment ratio); higher = better substrate or ligand; peptides without Tyr show the background
So basically: phosphorylation enrichment at 1 or higher? That is label 1. Lower than 1? That is label 0.

Check out these entries, answers already filled in.
| residueSequence | classAssignment |
| --- | --- |
| DLHGIYQKLVI | label 0 |
| REVVNYVQKRN [RMI1_Y450] | label 0 |
| LSGVIYVILGK [PMP22_Y153_R157G] | label 1 |
| PARLEYCENEK [IRS1_Y46_Y47C] | label 1 |
| DGYTDYAEFAK [MCFD2_Y138_I136T] | label 1 |

Here is the next item to consider.
Does RIGRKYKKVRF [F8_Y442] have a reported phosphorylation enrichment of at least 1?
label 0

---

- targetDesc: Hck (UniProt P08631)
- Sequence (P08631 whole entry, looked up): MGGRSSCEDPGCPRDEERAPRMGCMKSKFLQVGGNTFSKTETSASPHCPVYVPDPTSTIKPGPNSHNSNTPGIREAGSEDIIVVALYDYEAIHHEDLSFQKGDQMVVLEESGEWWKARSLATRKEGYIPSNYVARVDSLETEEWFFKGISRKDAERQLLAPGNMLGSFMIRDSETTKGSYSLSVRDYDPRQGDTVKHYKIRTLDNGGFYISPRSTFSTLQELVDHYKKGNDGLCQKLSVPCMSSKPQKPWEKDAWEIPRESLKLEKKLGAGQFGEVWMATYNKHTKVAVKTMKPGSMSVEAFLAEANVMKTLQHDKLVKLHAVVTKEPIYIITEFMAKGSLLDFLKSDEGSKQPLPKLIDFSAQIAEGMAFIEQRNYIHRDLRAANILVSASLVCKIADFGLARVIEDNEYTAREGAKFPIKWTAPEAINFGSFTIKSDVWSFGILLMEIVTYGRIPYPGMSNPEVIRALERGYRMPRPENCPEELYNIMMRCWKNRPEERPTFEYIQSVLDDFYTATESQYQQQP
- protocolSummary: phosphorylation enrichment, bacterial display (enrichment ratio); higher = better substrate or ligand; peptides without Tyr show the background
propertyMeasured: phosphorylation enrichment
Please give only the number in your answer, with no unit.

| residueSequence | phosphorylation enrichment |
| --- | --- |
| RPSRQYATRDV [SCAMP3_Y35_L38R] | 0.412 |
| EKSREYDRLYE [PIK3R1_Y463] | 0.944 |
| KACNPYKPPGP | 0.496 |
| ALAHKHHGGGG [HBB_Y146_Y146H] | 0.419 |
| LNYNEYFRDLN [HPRT1_Y198_D194N] | 0.879 |

Entry YSTDCYRVGGH [NTRK2_Y707_Y706C] ; phosphorylation enrichment = 0.45

get_value(item= YEREQYADRAR [RBM4_Y355] , readout=phosphorylation enrichment) returns 0.439

---

- System: c-Abl (mouse)
- protocolSummary: phosphorylation enrichment, bacterial display (enrichment ratio); higher = better substrate or ligand; peptides without Tyr show the background
Catalogue of sequences with associated phosphorylation enrichment

Recorded results for 4 sequences are shown here.
| residueSequence | phosphorylation enrichment |
| --- | --- |
| FLNSIYKSRDE [ROS1_Y2227] | 0.499 |
| CTTIHYNNMCN [TP53_Y234_Y236N] | 0.528 |
| RFLERYIFNRQ [HLA-DPB1_Y57_E62Q_YF] | 1.36 |
| VDEERYDIEAK [TNNI3_Y112] | 0.752 |

Result for TTKAKYKTPTY [PLD2_Y573] , tested on c-Abl (mouse), phosphorylation enrichment: 0.539

Short answer on c-Abl (mouse) for PSQRRYLYYYS [PTEN_Y174_V175L] , phosphorylation enrichment: 0.659

Entry PIQLFYTRRNT [GHR_Y86] under c-Abl (mouse) had phosphorylation enrichment of 0.738

Readout phosphorylation enrichment for ISISPYPAILH [IFT80_Y588_T586S] , test system c-Abl (mouse), was 0.557

Fill in: c-Abl (mouse) phosphorylation enrichment for TTKAKYKTPIY [PLD2_Y573_T577I] = 0.695

Test item KLFFHYNPKLC [INSR_Y457] ; c-Abl (mouse); reported phosphorylation enrichment was 0.855

Bench note, c-Abl (mouse): HICTAYELVLA [DHCR24_Y190] , phosphorylation enrichment reads 1.13

Tested system c-Abl (mouse); phosphorylation enrichment recorded for TNGFTYGSSHQ [MANEA_Y331] was 0.412

---

- targetDesc: c-Src SH2
- protocolSummary: SH2 binding enrichment of the phosphorylated peptide, bacterial display (enrichment ratio); higher = better substrate or ligand; peptides without Tyr show the background
Criterion: SH2 binding enrichment meeting or surpassing 0.6. Met: T. Not met: F.

# example entries with known answers
| residueSequence | classAssignment |
| --- | --- |
| SARFRYLMAEK [LDHB_Y173] | F |
| AAVDTYCRHNF [HLA-DRB1_Y107_YF] | F |
| LRFEVYGGENE [STOX1_Y610_YF] | F |
| SIGLGYHKDLQ [NF1_Y1169] | F |
| ADAGMYGVLPW [PLP1_Y207_R205G] | F |
| HEGKIYEYNQV [ZNF665_Y162] | T |

Quick check, SH2 binding enrichment >= 0.6? DDFNLYINVKL [MTHFD1_Y52_S49F]
F

Entry LSSISYVGCSL [ADGRD1_Y571] : is its SH2 binding enrichment no less than 0.6?
F

Dear colleague, could you confirm whether EVASVYESYQP [MAVS_Y92_Q93E] has SH2 binding enrichment at or above 0.6?
T

Check this sequence for SH2 binding enrichment at or above 0.6: NAPNSYGRRPI [CDKN2A_Y44]
F

Does VDDQIYFFRKP [PBRM1_Y1289_E1287Q_YF] have a reported SH2 binding enrichment of at least 0.6?
F

Test whether the sequence FADIAYNYRHR [PAH_Y166_G171R] records SH2 binding enrichment of 0.6 or higher.
F

# check: SH2 binding enrichment of DGTIVCTGLET [USH2A_Y4487_Y4487C] is greater than or equal to 0.6
F

Tell me whether SH2 binding enrichment is at least 0.6 here: REQREYLDQLN [CCDC88B_Y1277]
F

Check the entry CTTIHYNYMCI [TP53_Y234_N239I] : does SH2 binding enrichment equal or exceed 0.6?
T

Determine whether this sequence has SH2 binding enrichment no lower than 0.6: YYHCTYKQRMI [CLEC12A_Y242_K244Q]
T

Exam item: decide whether the reported SH2 binding enrichment for RALCHYYKLNI [ETV6_Y401_R399C] is at least 0.6.
T

Please tell me: is the sequence ITLPIYTKGSE [ANK2_Y1455_E1458G] at or over 0.6 in terms of SH2 binding enrichment?
F

I'd appreciate it if you could say whether SDPIVYTLENI [EMR1_Y534_I533V] has SH2 binding enrichment at least equal to 0.6.
F

Quick check: does TIMTDYNPNYC [ALK_Y1092] have SH2 binding enrichment greater than or equal to 0.6?
T

Is reported SH2 binding enrichment greater than or equal to 0.6 here: DCLASYLDKVR [KRT10_Y160_R156C]
F

Is it the case that QKKPRYEIRWK [PDGFRB_Y562] has SH2 binding enrichment reaching or exceeding 0.6?
T

Given the entry SERNNYSRVAN [CWC22_Y797] , answer whether its SH2 binding enrichment meets or surpasses 0.6.
T

---

Reported SH2 binding enrichment is given for each of the following sequences.
- targetDesc: SHP2-C SH2
- protocolSummary: SH2 binding enrichment of the phosphorylated peptide, bacterial display (enrichment ratio); higher = better substrate or ligand; peptides without Tyr show the background

Previously resolved entries follow.
| residueSequence | targetDesc | SH2 binding enrichment |
| --- | --- | --- |
| GLCSFYETSKM [MAGED2_Y449_R446C_YF] | SHP2-C SH2 | 0.689 |
| PEADKYCLTFA [FGG_Y300_R301C_YF] | SHP2-C SH2 | 0.606 |
| PTQLPYDHKWK [KIT_Y578_E583K] | SHP2-C SH2 | 0.512 |

Sample EFNLMYDGTKE [IRF6_Y97] ; SH2 binding enrichment observed: 1.21

---

- targetDesc: FGFR3 (UniProt P22607)
- protocolSummary: phosphorylation enrichment, bacterial display (enrichment ratio); higher = better substrate or ligand; peptides without Tyr show the background
Measured phosphorylation enrichment of individual entries
Give the figure only, with no unit attached.

| residueSequence | phosphorylation enrichment |
| --- | --- |
| GEKKAYVRLAP [RPL23A_Y137] | 0.43 |
| FLGRDYLETLM [DUS3L_Y610_YF] | 0.686 |
| SSYSRYIMMPN [LEF1_Y114_G113R] | 1.3 |

sequence EIVYVYVKKRS [DNAI2_Y7] , phosphorylation enrichment observed: 0.675

Lookup result for TRDVNYGWTIR [MT-CYB_Y75_I78T] ; measured phosphorylation enrichment: 0.636

Per the record, FSQNIYIQNRN [PKP2_Y631_YF] has phosphorylation enrichment of 0.473

Entry MRALIYNSSTA [PLEKHA7_Y243] — recorded phosphorylation enrichment = 0.493
